# system under test: rat A3 adenosine receptor (Rattus norvegicus);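 note: radioligand binding on membrane homogenates, 1 h incubation at 37 °C in duplicate, gamma counting of filter-bound radioactivity, nonspecific binding defined using 200 µM NECA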
# Sequence (P28647 1-320): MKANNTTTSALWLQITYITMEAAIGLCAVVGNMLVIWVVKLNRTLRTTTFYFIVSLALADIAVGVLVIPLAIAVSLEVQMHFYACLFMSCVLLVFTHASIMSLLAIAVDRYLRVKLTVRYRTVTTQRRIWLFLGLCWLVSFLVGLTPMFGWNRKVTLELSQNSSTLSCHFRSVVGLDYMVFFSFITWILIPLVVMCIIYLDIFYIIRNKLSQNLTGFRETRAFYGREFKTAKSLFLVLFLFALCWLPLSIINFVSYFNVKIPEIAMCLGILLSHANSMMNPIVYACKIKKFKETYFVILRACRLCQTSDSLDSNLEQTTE
# condition parameters: ratio of Ki (A2A) to Ki (A3), rat
assay readout: A2A/A3

Consider the worked cases shown below.
CCNC(=O)[C@H]1O[C@@H](n2cnc3c(NC(=O)Nc4nncs4)ncnc32)[C@H](O)[C@@H]1O [Compound 3l] | 0.16
CCNC(=O)[C@H]1O[C@@H](n2cnc3c(NC(=O)Cc4ccc(Cl)cc4Cl)ncnc32)[C@H](O)[C@@H]1O [Compound 3b] | 0.16
CCCOc1ccc(NC(=O)Nc2ncnc3c2ncn3[C@@H]2O[C@H](C(=O)NCC)[C@@H](O)[C@H]2O)cc1 [Compound 3m] | 2.4

A = CCNC(=O)[C@H]1O[C@@H](n2cnc3c(NC(=O)c4ccc(-c5ccccc5)cc4)ncnc32)[C@H](O)[C@@H]1O [Compound 3a]
B = CCNC(=O)[C@H]1O[C@@H](n2cnc3c(NC(=O)N[C@H](C)c4ccccc4)ncnc32)[C@H](O)[C@@H]1O [Compound 3i]
Query :: // compare measured A2A/A3, left A , right B , return larger Your answer should be the label of the entry you select.
Result :: B
